B1: TPR 5TU (parent)
chain: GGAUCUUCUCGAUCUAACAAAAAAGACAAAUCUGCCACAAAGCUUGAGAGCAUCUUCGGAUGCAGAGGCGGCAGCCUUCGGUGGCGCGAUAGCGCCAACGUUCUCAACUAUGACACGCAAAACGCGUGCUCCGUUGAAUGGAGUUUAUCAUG

Variants of: B1
Assay: polymerase ribozyme fitness, log enrichment relative to wild type (log ratio); higher = more active; in vitro selection for triplet polymerase activity
Fewer inactive variants are shown than the library holds.
Catalogue of variants with associated polymerase ribozyme fitness (log ratio)

Consider the reported polymerase ribozyme fitness (log ratio) for these variants:
Mut	Recorded Measurement
A37G A41G C79A G92U C95U C123U	≤ -4.2
U6A U55G U139A	≤ -4.2
A19U A26C C38U A89G A98U A107C	≤ -4.2

Shift focus to the following entry.
Requested read-out: polymerase ribozyme fitness (log ratio). Entry: A24G C51G G59C G92C C99U C125U
≤ -4.2
